Molecular target: T1, HLA-DR52a (DRB3*0101), purified from MAT cells or TR81.19 transfected fibroblasts (human)
T1 chain 1: not shown
T1 chain 2: not shown
Experiment: 125I-peptide inhibition, purified class II
pIC50: −log10 of the molar value. Non-standard residues stand in square brackets, D forms with d. No end group written: not given here. Cha = N[C@@H](CC1CCCCC1)C(=O)O

# Binder, pIC50
measured = [
    ("[dA]A[Cha]VAAATLKAA[dA] [906.09]", 6.23),
]

Values were extracted from patent US6413935.
